assay: Shake flask solubility (24 h) in buffer/biorelevant media; assay type: physicochemical; conditions: thermodynamic from solid; FeSSIF-V2, pH 5.8, 37° C., n=3; read-out: Solubility Measurements (24 h)
outcomeMeasure: solubility at 24 h

In plain terms, C[C@H]1c2cccc(C(C)(C)O)c2C[C@H](CO)N1C(=O)Cc1c(Cl)ccc2c1c(Cl)nn2C has a documented solubility at 24 h of ~4 µg/mL

* * *

Assay: Shake flask solubility (24 h) in buffer/biorelevant media
Assay type: physicochemical
Conditions: thermodynamic from solid; FaSSIF-V2, pH 6.5, 37° C., n=3; read-out: Solubility Measurements (24 h)
Protocol: The respective solubility of compounds of formula (Ia) and ASD1 was determined in different media while using the shake flask method. […] The solubility of compound (Ia) and ASD1 was determined in triplicate (n=3). […]
outcomeMeasure: solubility at 24 h

In plain terms, C[C@H]1c2cccc(C(C)(C)O)c2C[C@H](CO)N1C(=O)Cc1c(Cl)ccc2c1c(Cl)nn2C [Compound (Ia)] has a documented solubility at 24 h of ~1.5 µg/mL
